# System: Alopecurus myosuroides (ALOMY)
# Test Name: Herbicidal post-emergence action (B), 1280 g/ha
# Type: in vivo
# Assay Conditions: rated visually after about 3 weeks vs untreated controls
Reported Metric: herbicidal activity ALOMY (%)
Answers are plain numbers, in %.

1) Fc1cccc(-c2nc3ncsc3cc2Cl)c1 | 90
2) CCc1cc2scnc2nc1-c1cccc(F)c1 | 100
3) Cc1ccsc1-c1nc2ncsc2cc1Br | 100

Report herbicidal activity ALOMY for every entry below.
1. Cc1cc(C)c(-c2nc3ncsc3cc2C)s1
2. CCc1cc2scnc2nc1C12CCCCC1O2 (stereo not drawn)
3. Cc1cc2scnc2nc1-c1cccc(F)c1
4. CCc1cc2scnc2nc1-c1ccccc1F

OUTPUT:
100
100
100
100

Hi team, please reply with herbicidal activity ALOMY for each item in this list.
1. CCc1cc2scnc2nc1-c1ccccc1
2. C=Cc1cc2scnc2nc1-c1ccccc1F
3. Fc1ccccc1-c1nc2ncsc2cc1C1CC1
4. Clc1ccccc1-c1nc2ncsc2cc1Cl
5. Clc1cc2scnc2nc1-c1ccsc1Cl
6. CCc1cc2scnc2nc1-c1ccccc1C
7. CCc1cc2scnc2nc1C1=CCCCC1

OUTPUT:
1. 100
2. 100
3. 100
4. 100
5. 100
6. 100
7. 100

The measured values listed here are drawn from patent US20230151025A1.
